Reference source: PubChem BioAssay (NCI)

Test system: K-562 leukemia
assay text: NCI tumour cell line growth inhibition, 48 h
Please respond with reported TGI for every item in the list.

Prompt line: Endpoint output: TGI of C1=C\SS/C=C\SS/1 . Value?
Response line: 85.2 µM

Prompt line: Endpoint output: TGI of CNC(=O)CCCNC(=O)CCCC(=O)N(C)C . Value?
Response line: > 100 µM

Prompt line: Endpoint output: TGI of CCON1CC(C(=O)OC)=C(O)C1=O . Value?
Response line: > 100 µM

Prompt line: Endpoint output: TGI of CC(C)CCC1(CCN)C(=O)NC(=O)NC1=O . Value?
Response line: > 100 µM

Prompt line: Endpoint output: TGI of Cc1nc(C(N)=S)sc1C(=O)/C=C/c1c(O)ccc2ccccc12 . Value?
Response line: > 64.7 µM

Prompt line: Endpoint output: TGI of COC1=C(C)C(=O)c2c(c(COC(N)=O)c3n2CC(OC(C)=O)C3OC(C)=O)C1=O (stereo unspecified) . Value?
Response line: > 100 µM
